Target: Bn-VAKGL pentapeptide of filamin A (FLNA) (Homo sapiens, UniProt P21333)
Assay: FITC-NLX-based FLNA screening assay (FLNA peptide binding assay)
Details: read-out: Percent inhibition of FITC-NLX binding, 0.01 μM, 0.01 μM compound, 10 nM FITC-NLX
Reported values of inhibition at 0.01 µM for individual entries
quantityKind: inhibition at 0.01 µM (%)

compound | numericResult
CC1CCC(C(C)C)C(OCC(O)CN2CCOc3ccccc32)C1 (centres unmarked) | 36.7
COc1ccc(OCC(O)CN2CCc3cc4c(c(OC)c3C2)OCO4)cc1 (centres unmarked) | 32.9
COc1ccc(OCC(O)CN2CCCc3ccccc32)cc1 (centres unmarked) | 32.7
OC(COc1ccccc1Br)CN1CCN(CCN2CCOCC2)CC1 (centres unmarked) | 41.8
COc1ccc(OCC(O)CN2CCC(=O)CC2)cc1 (centres unmarked) | 44.7

====

Experiment: Mouse hot-water tail-flick test
Type: in vivo
Conditions: oral, 56 mg/kg
quantityKind: mean maximum antinociception

molecule | result
CC1CCCC(OCC(O)CN2CC(C)OC(C)C2)C1 (centres unmarked) | about 25%
CC1CCC(C(C)C)C(OCC(O)CN2CCc3ccccc32)C1 (centres unmarked) | about 25%

====

Reported values of % DAMGO (0.1 μM) for individual entries
Molecular target: μ opiate receptor (MOR) (Rattus norvegicus)
Construct: from tissue; host or cells: striatal tissue (membrane preparation)
Test: MOR agonist activity, [35S]GTPγS binding assay using striatal membranes
Assay type: biochemical
Details: relative to DAMGO, 0.1 μM
quantityKind: % DAMGO (0.1 μM) (%)

compound | unitsOfMeasure | numericResult
OC(COc1ccccc1Br)CN1CCN(CCN2CCOCC2)CC1 (stereo not drawn) [Compound A0064] | % | 127.4
CC1CCC(C(C)C)C(OCC(O)CN2CCc3ccccc32)C1 (stereo not drawn) [Compound A0065] | % | 126.6
CC1CN(CC(O)COc2cc(F)cc(F)c2)CC(C)O1 (stereo not drawn) [Compound A0046] | % | 131.2
COc1ccc(OCC(O)Cn2ccc3ccccc32)cc1 (stereo not drawn) [Compound A0077] | % | 170.5
COc1ccc(OCC(O)CN2CCc3cc4c(c(OC)c3C2)OCO4)cc1 (stereo not drawn) [Compound A0070] | % | 74.7
OC(CN1CCc2ccccc2C1)OCc1ccc(Br)c(F)c1 (stereo not drawn) [Compound A0057] | % | 79.6

====

Molecular target: μ opiate receptor (MOR) (Rattus norvegicus, UniProt P33535)
Construct: from tissue; host or cells: striatal tissue (membrane preparation)
Sequence (P33535 whole entry): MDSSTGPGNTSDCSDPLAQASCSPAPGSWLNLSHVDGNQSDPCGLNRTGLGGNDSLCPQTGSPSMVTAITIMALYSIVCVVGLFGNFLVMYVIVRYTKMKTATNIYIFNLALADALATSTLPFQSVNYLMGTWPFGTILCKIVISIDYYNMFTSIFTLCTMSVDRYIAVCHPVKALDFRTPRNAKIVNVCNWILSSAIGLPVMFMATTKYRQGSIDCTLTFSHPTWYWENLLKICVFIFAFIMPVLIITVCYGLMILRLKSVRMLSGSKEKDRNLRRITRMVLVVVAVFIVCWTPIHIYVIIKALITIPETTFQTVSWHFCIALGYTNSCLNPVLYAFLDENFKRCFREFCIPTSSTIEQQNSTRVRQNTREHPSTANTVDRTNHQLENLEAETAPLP
Assay: MOR agonist activity, [35S]GTPγS binding assay using striatal membranes
Format: biochemical
Settings: 1 μM compound + 1 μM β-funaltrexamine
Reported values of [35S]GTPγS binding to Gαo, FLNA-binding compound as agonist 1 μM + BFNA for individual entries
quantityKind: [35S]GTPγS binding to Gαo, FLNA-binding compound as agonist 1 μM + BFNA (%)

compound | numericResult
CC1CCC(C(C)C)C(OCC(O)CN2CCN(CCN3CCCCC3)CC2)C1 (centres unmarked) [Compound A0031] | 150.9
CC1CCC(C(C)C)C(OCC(O)CN2CCCN(C)CC2)C1 (centres unmarked) [Compound A0010] | 190.3
CC1CCC(C(C)C)C(OCC(O)CN2CCOc3ccccc32)C1 (centres unmarked) [Compound A0066] | 59.2
CC1CCC(C(C)C)C(OCC(O)CN2CCCC2)C1 (centres unmarked) [Compound A0001] | 22.2
OC(COc1ccccc1Br)CN1CCN(CCN2CCOCC2)CC1 (centres unmarked) [Compound A0064] | 43.7

These measurements were taken from patent US20100279997A1.
